- target_or_system: Recombinant human MAO-A (Homo sapiens, UniProt P21397)
- Sequence (P21397 whole entry): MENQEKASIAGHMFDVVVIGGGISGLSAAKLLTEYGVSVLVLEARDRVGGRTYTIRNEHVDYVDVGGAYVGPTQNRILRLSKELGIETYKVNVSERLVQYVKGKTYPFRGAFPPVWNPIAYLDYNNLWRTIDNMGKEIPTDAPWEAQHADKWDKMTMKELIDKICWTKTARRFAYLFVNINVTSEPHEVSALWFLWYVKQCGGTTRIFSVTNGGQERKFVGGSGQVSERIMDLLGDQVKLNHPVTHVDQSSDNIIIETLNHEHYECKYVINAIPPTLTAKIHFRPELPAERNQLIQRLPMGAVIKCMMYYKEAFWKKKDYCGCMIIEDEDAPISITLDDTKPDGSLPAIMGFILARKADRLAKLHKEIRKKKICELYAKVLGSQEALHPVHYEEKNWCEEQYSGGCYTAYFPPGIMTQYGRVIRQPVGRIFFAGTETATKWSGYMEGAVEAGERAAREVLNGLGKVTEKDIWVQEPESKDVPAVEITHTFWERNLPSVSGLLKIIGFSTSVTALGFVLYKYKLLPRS
- assay: MAO-A activity, colorimetric method, tyramine substrate
- condition_description: recombinant human MAO-A
outcome_measure: IC50

Worked examples follow.
Cl.NC/C(F)=C\Cc1cccc(SC(F)(F)F)c1 [II-15-E, hydrochloride]; > 800 µM
Cl.NC/C(F)=C\Cc1ccc(F)cc1 [II-5-E, hydrochloride]; > 1000 µM
NC/C(F)=C\Cc1cc(F)cc(C(F)(F)F)c1; > 87 µM

Read the next record carefully.
Fill in: IC50 of `COc1cccc(OC/C=C(/F)CN)c1` is ___
> 1000 µM

---

- target_or_system: Human SSAO (Homo sapiens, UniProt Q16853)
- Construct: rat lung or human umbilical cord homogenates were prepared by chopping the freshly removed tissue; from tissue; host or cells: human umbilical cord homogenate (25,000 g supernatant)
- Sequence (Q16853 whole entry): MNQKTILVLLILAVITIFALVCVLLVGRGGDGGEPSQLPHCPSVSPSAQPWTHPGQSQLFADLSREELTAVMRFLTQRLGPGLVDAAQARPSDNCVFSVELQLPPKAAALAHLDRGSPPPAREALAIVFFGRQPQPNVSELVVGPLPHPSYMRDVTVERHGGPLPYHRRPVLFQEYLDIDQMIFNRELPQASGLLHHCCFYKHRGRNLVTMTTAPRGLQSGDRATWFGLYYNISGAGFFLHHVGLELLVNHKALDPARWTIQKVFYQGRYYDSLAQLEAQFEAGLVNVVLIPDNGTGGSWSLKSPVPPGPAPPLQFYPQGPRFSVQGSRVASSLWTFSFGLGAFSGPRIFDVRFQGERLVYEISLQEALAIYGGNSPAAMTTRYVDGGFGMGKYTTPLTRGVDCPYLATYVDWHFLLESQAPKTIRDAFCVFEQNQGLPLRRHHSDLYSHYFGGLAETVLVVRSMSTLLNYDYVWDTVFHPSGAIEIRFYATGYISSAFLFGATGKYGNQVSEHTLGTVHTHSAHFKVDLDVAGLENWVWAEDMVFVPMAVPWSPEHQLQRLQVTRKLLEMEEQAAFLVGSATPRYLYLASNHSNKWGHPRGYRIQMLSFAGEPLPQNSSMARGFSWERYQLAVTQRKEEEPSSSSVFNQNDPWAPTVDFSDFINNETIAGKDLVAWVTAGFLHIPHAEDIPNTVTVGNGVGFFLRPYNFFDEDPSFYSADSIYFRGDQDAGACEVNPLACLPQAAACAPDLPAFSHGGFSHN
- assay: In vitro inhibition of SSAO activity, human umbilical cord homogenate, 14C-benzylamine
- Type: biochemical
- condition_description: human umbilical cord homogenate; read-out: Human SSAO IC50
Please respond with reported IC50 for every item in the list.
One number for each entry, in nM.

Worked examples follow.
Cl.NC/C(F)=C\Cc1ccc(F)cc1 [II-5-E, hydrochloride]; 300
COc1ccccc1C/C=C(/F)CN.Cl [II-17-E, hydrochloride]; 4500
Cl.NC/C(F)=C\Cc1cccc(F)c1 [II-7-E, hydrochloride]; 220

Batch: IC50 for all items listed.
1. NC/C(=C/Cl)CCc1ccc(Cl)cc1.O=C(O)C(F)(F)F [Compound I-43-Z, trifluoroacetate]
2. NCC(=O)CCc1cc(F)cc(C(F)(F)F)c1
3. Cl.NC/C(F)=C\Cc1ccccc1 [II-9-E, hydrochloride]
4. COc1cccc(C/C=C(/F)CN)c1.Cl [II-8-E, hydrochloride]
5. COc1ccc(CCC(=O)CN)cc1
6. COc1cccc(C/C(=C/F)CN)c1.Cl [Compound I-5-Z, hydrochloride]
7. Cc1ccc(CC/C(=C\Cl)CN)cc1.Cl [Compound I-50-E, hydrochloride]
8. Cl.NC/C(=C\F)Cc1ccc(Cl)cc1 [Compound I-3-Z, hydrochloride]

1. 1400
2. 1500
3. 99
4. 22
5. 3000
6. 28
7. 1000
8. 28
